// merged dataset of IC50 values, system = human IKK-β (Homo sapiens), multiple refs
Sequence (O14920 whole entry): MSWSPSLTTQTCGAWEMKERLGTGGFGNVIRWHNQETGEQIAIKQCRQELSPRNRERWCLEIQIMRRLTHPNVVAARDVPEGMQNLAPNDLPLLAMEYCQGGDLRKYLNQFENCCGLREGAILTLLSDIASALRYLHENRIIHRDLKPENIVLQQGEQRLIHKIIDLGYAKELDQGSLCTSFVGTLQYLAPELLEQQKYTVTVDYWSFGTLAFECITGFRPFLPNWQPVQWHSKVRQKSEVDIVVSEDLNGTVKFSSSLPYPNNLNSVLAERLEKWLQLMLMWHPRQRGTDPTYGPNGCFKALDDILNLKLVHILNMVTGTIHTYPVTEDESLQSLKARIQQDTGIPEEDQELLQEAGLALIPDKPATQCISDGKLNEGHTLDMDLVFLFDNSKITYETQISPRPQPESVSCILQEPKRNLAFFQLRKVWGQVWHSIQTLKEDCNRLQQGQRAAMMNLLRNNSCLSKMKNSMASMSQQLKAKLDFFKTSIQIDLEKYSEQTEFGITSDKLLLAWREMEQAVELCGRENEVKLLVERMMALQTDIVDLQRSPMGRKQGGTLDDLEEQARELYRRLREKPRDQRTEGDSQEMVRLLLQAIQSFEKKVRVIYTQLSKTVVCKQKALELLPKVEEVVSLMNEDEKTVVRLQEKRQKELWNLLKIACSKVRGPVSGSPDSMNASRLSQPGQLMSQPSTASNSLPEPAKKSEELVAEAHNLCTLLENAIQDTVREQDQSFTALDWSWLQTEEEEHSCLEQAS

Here are 7 molecules together with their reported answers.
1. Nc1nc(-c2ccccc2O)cc(C2CCCNC2)c1CNC(=O)C1CC1 (centres unmarked) | < 500 nM
2. N#Cc1c(CC(N)c2ccccc2)cc(-c2ccccc2O)nc1N (centres unmarked) | < 500 nM
3. CC(C)C[C@H](NCc1ccc(-c2cc(C(N)=O)c(NC(N)=O)s2)c(Cl)c1)C(=O)OC1CCCC1 | < 1000 nM
4. N#Cc1c(C2CCCNC2)cc(-c2c(O)cccc2OCc2ccc(Cl)cc2)nc1N (centres unmarked) | < 500 nM
5. CCCc1cc(N2CCC(NCC(O)c3cccc(-c4ccccn4)c3)CC2)nc2sc(C(N)=O)c(N)c12 (centres unmarked) | < 1000 nM
6. CC(C)C[C@H](NC/C=C/c1ccc(-c2cc(C(N)=O)c(NC(N)=O)s2)cc1)C(=O)OC1CCCC1 | < 1000 nM
7. CCCOc1cccc(O)c1-c1cc(C2CCNCC2)c2c(n1)NC(=O)OC2 | < 500 nM

[Q] Tell me its IC50 given "N#Cc1c(-c2cc(NC(=O)CCN)ccc2F)cc(-c2ccccc2O)nc1N" as the entry.
[A] 2000 to 10000 nM
